target-system: epitope-specific SARS-CoV-2 IgGs
test-description: SPR spectroscopy (Biacore T200): IgG binding to immobilized biotinylated peptide epitopes
Parameters: species or system rabbit
measurement-context: Example 9, kinetic fitting, streptavidin treated CM5 chip
assay-endpoint: binding affinities (estimated Kd, order of magnitude)

GIAVEQDKNTQEVFAQVK [S20P2] = nM
NNAAIVLQLPQGTTLPKG [N4P5] = μM
PSKPSKRSFIEDLLFNKV [S21P2] = pM
TESNKKFLPFQQFGRDIA [S14P5] = pM

###

target-system: epitope-specific SARS-CoV-2 IgGs
test-description: SPR spectroscopy (Biacore T200): IgG binding to immobilized biotinylated peptide epitopes
Set-up: species or system rabbit
measurement-context: steady-state analysis without dissociation step, respective target IgG, 25° C.; read-out: Kd from steady-state analysis
Assign pKd to each entry below.
One number for each entry, as −log10 of the molar value.

A selection of reference data follows.
GIAVEQDKNTQEVFAQVK [S20P2] = 6.29
NNAAIVLQLPQGTTLPKG [N4P5] = 5.79
PSKPSKRSFIEDLLFNKV [S21P2] = 6.90

Proceed to the following item.
The recorded pKd for entry TESNKKFLPFQQFGRDIA [S14P5] equals 6.95
